Assay: Plasma stability assay, mouse plasma
Type: in vitro ADME
Settings: 4 h incubation, 37° C., read-out: % intact compound remaining after incubation, Mouse plasma
Numbered stars: 1 amine (or outer) side, 2 acyl side, 3 side chain; on linkers, the order of the positions; unused ones are H or OH. Bridge positions count the residues as written; N and C are the ends. Square brackets hold non-standard residues; d marks the D form. Peptide text beside a SMILES is read from it. * marks the point of attachment. ξ: configuration not given here. X2 = O=C(O)CN1CCN(CC(=O)O)CCN(CC(=O)NCCCOCCOCCOCCCN*)CCN(CC(=O)O)CC1; mXylylene = c1cc(C[*:1])cc(C[*:2])c1; αMeF = C[C@](N)(Cc1ccccc1)C(=O)O; Suc = O=C(CCC(=O)[*:2])[*:1]; Nle = CCCC[C@H](N)C(=O)O; ξD = NC(CC(=O)O)C(=O)O
experimental-readout: remaining at 4 h, 9.8 µM
Kindly write the number and append the unit.

Problem: I would be grateful if you could share the reported remaining at 4 h, 9.8 µM for CCCC[C@H](NC(=O)CCC(=O)NCCCOCCOCCOCCCNC(=O)CN1CCN(CC(=O)O)CCN(CC(=O)O)CCN(CC(=O)O)CC1)C(=O)N[C@H]1CSCc2cccc(c2)CSC[C@@H](C(=O)NC(CC(=O)O)C(N)=O)NC(=O)[C@H](Cc2ccccc2)NC(=O)[C@H](CCC(=O)O)NC(=O)[C@H]([C@@H](C)O)NC(=O)[C@@H]2CCCN2C(=O)[C@@H]2CCCN2C1=O (some centres unmarked) [3BP-3320] ({X2-Suc}-[Nle]CPPTEFC[ξD]-NH2; linker 2-8 via mXylylene) .
Result: 75%

Problem: I would be grateful if you could share the reported remaining at 4 h, 9.8 µM for CSCC[C@H](NC(C)=O)C(=O)N[C@H]1CSCc2cccc(c2)CSC[C@@H](C(=O)N[C@@H](CC(=O)O)C(=O)N[C@@H](Cc2c[nH]cn2)C(=O)N[C@H](Cc2ccccc2)C(=O)N[C@@H](CCCNC(=N)N)C(=O)N[C@@H](CC(=O)O)C(N)=O)NC(=O)[C@H](Cc2ccccc2)NC(=O)[C@H](CCC(=O)O)NC(=O)[C@H]([C@@H](C)O)NC(=O)[C@@H]2CCCN2C(=O)[C@@H]2CCCN2C1=O [3BP-3211] (Ac-MCPPTEFCDH[dF]RD-NH2; linker 2-8 via mXylylene) .
Result: 85%

Problem: I would be grateful if you could share the reported remaining at 4 h, 9.8 µM for CC(=O)N[C@H]1CSCc2cccc(c2)CSC[C@@H](C(=O)N[C@@H](CC(=O)O)C(=O)N[C@@H](Cc2c[nH]cn2)C(=O)N[C@@H](Cc2ccccc2)C(=O)N[C@@H](CCCNC(=N)N)C(=O)N[C@@H](CC(=O)O)C(N)=O)NC(=O)[C@H](Cc2ccccc2)NC(=O)[C@H](CCC(=O)O)NC(=O)[C@H]([C@@H](C)O)NC(=O)[C@@H]2CCCN2C(=O)[C@@H]2CCCN2C1=O [3BP-3202] (Ac-CPPTEFCDHFRD-NH2; linker 1-7 via mXylylene) .
Result: 78%

Problem: I would be grateful if you could share the reported remaining at 4 h, 9.8 µM for CSCC[C@H](NC(C)=O)C(=O)N[C@H]1CSCc2cccc(c2)CSC[C@@H](C(=O)N[C@@H](CC(=O)O)C(=O)N[C@@H](Cc2c[nH]cn2)C(=O)N[C@@](C)(Cc2ccccc2)C(=O)N[C@@H](CCCNC(=N)N)C(=O)N[C@@H](CC(=O)O)C(N)=O)NC(=O)[C@H](Cc2ccccc2)NC(=O)[C@H](CCC(=O)O)NC(=O)[C@H]([C@@H](C)O)NC(=O)[C@@H]2CCCN2C(=O)[C@@H]2CCCN2C1=O [3BP-3203] (Ac-MCPPTEFCDH[αMeF]RD-NH2; linker 2-8 via mXylylene) .
Result: 100%

Problem: I would be grateful if you could share the reported remaining at 4 h, 9.8 µM for CSCC[C@H](NC(C)=O)C(=O)N[C@H]1CSCc2cccc(c2)CSC[C@@H](C(=O)N[C@@H](CC(=O)O)C(=O)N[C@@H](Cc2c[nH]cn2)C(=O)N[C@@H](Cc2ccccc2)C(=O)N[C@@H](CCCNC(=N)N)C(=O)N[C@@H](CC(=O)O)C(N)=O)NC(=O)[C@H](Cc2ccccc2)NC(=O)[C@H](CCC(=O)O)NC(=O)[C@H]([C@@H](C)O)NC(=O)[C@@H]2CCCN2C(=O)[C@@H]2CCCN2C1=O [3BP-2975] (Ac-MCPPTEFCDHFRD-NH2; linker 2-8 via mXylylene) .
Result: 100%
